// reported TGI for each item listed
Test system: HCT-116 colon
Experiment: NCI tumour cell line growth inhibition, 48 h

1. O=C(CC(=O)N(C(=O)c1ccccc1)c1ccc(Cl)cc1)N/N=C\c1ccccc1O : > 100 µM
2. O=C(CCc1nnc(-c2c(Cl)cccc2Cl)o1)c1nc2ccccc2[nH]1 : 13.5 µM
3. O=C(c1ccccc1)c1ccc(Cl)c([N+](=O)[O-])c1 : 18.1 µM
4. CCOC(=O)c1c[nH]c2c(OCc3ccccc3)c3ccccc3c(O)c2c1=O : > 51.8 µM
5. COc1ccc2c(CC(=O)O)cc(=O)oc2c1 : > 100 µM
6. CSc1c(CC(=O)O)n(Cc2ccccc2)c2ccccc12 : > 100 µM

Entry OCCOCCN1CCN(c2nc(N3CCCC3)c3nc(Cl)c(NCc4ccccc4)nc3n2)CC1 : reported TGI = ?
26.4 µM

* * *

Tested on: NCI/ADR-RES ovarian
Assay: NCI tumour cell line growth inhibition, 48 h
REPORTED_ENDPOINT: GI50

Some solved entries appear below for comparison.
1) CN(CCCCCl)P(=O)(OCc1ccc([N+](=O)[O-])o1)C(F)(F)c1ccc(CC(=O)N[C@@H](CC(=O)O)C(=O)N[C@@H](Cc2ccc(C(F)(F)P(=O)(OCc3ccc([N+](=O)[O-])o3)N(C)CCCCCl)cc2)C(N)=O)cc1 (stereo partly drawn) : > 100 µM
2) Nc1ncnc2c1c(-c1cccc(OCc3ccccc3)c1)cn2C1CC(CN2CCCC2)C1 (stereo not drawn) : 5.01 µM
3) Fc1ccc(CNc2c3ccccc3nc3ccccc23)cc1 : 2.33 µM
4) Fc1ccc(-c2ncn(C3CCNCC3)c2-c2ccnc(Oc3ccccc3)n2)cc1 : > 25 µM

// next item, GI50 requested
Entry CC1(C)CC(=O)C2=C(C1)NC(SSC1=C(C#N)C(c3ccc(Br)cc3)C3=C(CC(C)(C)CC3=O)N1)=C(C#N)C2c1ccc(Br)cc1 (stereo not drawn) : reported GI50 = ?
28.9 µg/mL

* * *

// reported TGI for each item listed
System: M19-MEL melanoma
Assay: NCI tumour cell line growth inhibition, 48 h

Entry O=c1oc2c3ccc4ccccc4c3n(CCN3CCOCC3)c2c2ccccc12 : reported TGI = ?
> 100 µM

Entry CN(C)c1ccccc1CC(c1c[nH]c2ccccc12)c1c[nH]c2ccccc12 : reported TGI = ?
29.1 µM

Entry COc1cc(C2c3cc4c(cc3OC3(O)COC(=O)C23)OCO4)cc(OC)c1OC (stereo unspecified) : reported TGI = ?
> 100 µM

* * *

// reported TGI for each item listed
Test system: RPMI-8226 leukemia
Test: NCI tumour cell line growth inhibition, 48 h

Some solved entries appear below for comparison.
1. O=C1OC(c2ccccc2)C2CC3CC4(CCC3CN12)OCCO4 (stereo not drawn) : > 100 µM
2. Cn1c(=O)oc2cc(C(=S)N3CCC(Cc4ccccc4)CC3)ccc21 : > 100 µM
3. O=C(N/N=C/c1coc2ccc(Cl)cc2c1=O)c1ccncc1 : > 100 µM
4. COc1ccc2c(c1)CCc1cnn(C3OC(COC(C)=O)C(OC(C)=O)C(OC(C)=O)C3OC(C)=O)c1-2 (stereo not drawn) : 53.8 µM
5. C[C@@H](C(=O)O)c1ccc(-c2ccccc2)c(F)c1 : > 100 µM
6. CC(C)c1ccc2c(N=Nc3ccc(S(N)(=O)=O)cc3)c(O)[nH]c2c1 : > 25 µM

Query TGI on RPMI-8226 leukemia for CCCCC(NC(=O)CC)C(=O)O (stereo not drawn)
> 100 µM

Query TGI on RPMI-8226 leukemia for O=c1c2cc(Br)ccc2[nH]c(=S)n1-c1ccc(Br)cc1
> 100 µM

Query TGI on RPMI-8226 leukemia for C(=N/Nc1ncnc2nc[nH]c12)/c1ccccn1
> 100 µM

Query TGI on RPMI-8226 leukemia for C/C(=N\Nc1ccc2ccccc2n1)c1ccccc1O
> 100 µM

Query TGI on RPMI-8226 leukemia for CCCCCCNC(=O)c1cc(C#Cc2cc(OC)ccc2OC)ccc1OC
> 100 µM

* * *

Tested on: RXF 393 renal
Assay: NCI tumour cell line growth inhibition, 48 h
// reported TGI for each item listed
The response must be a number in µM with no trailing unit.

Some solved entries appear below for comparison.
1. CC(C)(C)[Si](C)(C)OCC1OC(n2cc(F)c(=O)[nH]c2=O)CC1O[Si](C)(C)C(C)(C)C (stereo unspecified) : 16.2
2. O/N=C(\C=N\O)c1ccc2c(c1)Sc1ccccc1O2 : 36

Entry COc1cc(C2c3cc4c(cc3OC3(O)COC(=O)C23)OCO4)cc(OC)c1OC (stereo unspecified) : reported TGI = ?
91.5

Entry CN(C)CCSC(=Nc1ccccc1)N1C=COC=C1 : reported TGI = ?
72.8

* * *

Test system: ACHN renal
Test: NCI tumour cell line growth inhibition, 48 h
REPORTED_ENDPOINT: TGI

1. CCCCCCCCCCCC1=NC(C)(C)CN1CCO : 23.5 µM
2. COc1cc(C2SCC(=O)N2c2ccc(-c3ccc(-n4c(-c5ccccc5)nc5ccccc5c4=O)cc3)cc2)ccc1O (stereo not given) : > 100 µM
3. CC(=O)OCc1cccc(O)c1C(=O)CCC=C(C)C : > 100 µM
4. CN(C)CCSC(=Nc1ccccc1)N1C=COC=C1 : > 100 µM
5. COc1ccc(N2C(=O)CSC2c2cc3cc(Br)ccc3nc2Cl)cc1 (stereo not given) : > 50 µM
6. CC(C)c1ccc2c(N=Nc3ccc(S(N)(=O)=O)cc3)c(O)[nH]c2c1 : > 25 µM
7. CC1=NN(c2nc(N)nc(C(C)Sc3cc(Cl)c(C)cc3S(N)(=O)=O)n2)C(C)(C)C1 (stereo not given) : > 10 µM
8. CN(C)CCCc1cccnc1 : > 100 µM

Entry O=c1[nH]c(=O)n(C2CC(O)C(COP(=O)(O)OC3CC(n4cc(F)c(=O)[nH]c4=O)OC3COP(=O)(O)OC3CC(n4cc(F)c(=O)[nH]c4=O)OC3COP(=O)(O)OC3CC(n4cc(F)c(=O)[nH]c4=O)OC3COP(=O)(O)OC3CC(n4cc(F)c(=O)[nH]c4=O)OC3COP(=O)(O)OC3CC(n4cc(F)c(=O)[nH]c4=O)OC3COP(=O)(O)OC3CC(n4cc(F)c(=O)[nH]c4=O)OC3COP(=O)(O)OC3CC(n4cc(F)c(=O)[nH]c4=O)OC3COP(=O)(O)OC3CC(n4cc(F)c(=O)[nH]c4=O)OC3COP(=O)(O)OC3CC(n4cc(F)c(=O)[nH]c4=O)OC3CO)O2)cc1F (stereo not given) : reported TGI = ?
> 50 µM

Entry CC(C)=CCC[C@](C)(O)[C@H]1CC[C@]2(C)[C@@H]1[C@H](O)C[C@@H]1[C@@]3(C)CC[C@H](O[C@@H]4O[C@H](CO)[C@@H](O)[C@H](O)[C@H]4O)C(C)(C)[C@@H]3CC[C@]12C : reported TGI = ?
32.9 µM

* * *

// reported TGI for each item listed
Tested on: ACHN renal
Experiment: NCI tumour cell line growth inhibition, 48 h
The response must be a number in µM with no trailing unit.

Some solved entries appear below for comparison.
1) CCOC(=O)c1ccc2c(c1)[n+](=O)c(C(=O)c1ccc3ccccc3c1)c(C(F)(F)F)n2[O-] : 2.93
2) CCCn1cc(C2=C(c3cn(C)c4ccccc34)C(=O)NC2=O)c2ccccc21 : 7.45

// next item, TGI requested
Entry C=C1C(=O)O[C@H]2[C@H]1CC/C(COC(=O)/C=C\C(=O)NCc1ccc(Cn3c(=O)sn(-c4ccc(OC)cc4)c3=O)cc1)=C\CC[C@@]1(C)O[C@@H]21 : reported TGI = ?
1.07

* * *

Test system: SK-MEL-5 melanoma
Assay: NCI tumour cell line growth inhibition, 48 h; in the data active = GI50 below about 0.43 µM; inactive = the rest
Answer with one of the outcomes given here: yes = active, no = inactive

Record request — test call for COc1ccc(S(=O)(=O)N2CCN(C(=O)OCc3ccccc3)CC2C(=O)NO)cc1 (stereo not given)
no

* * *

Tested on: NCI-H460 lung
Assay: NCI tumour cell line growth inhibition, 48 h; in the data active = GI50 below about 0.43 µM; inactive = the rest
Answer with one of the outcomes given here: Yes for active, No for inactive

Solved cases (8 shown):
1. O=C(CCCCCCC(=O)N/N=C/c1ccc(N(c2ccccc2)c2ccccc2)cc1)NO : No
2. COc1cc(C(=O)NC2CCN(C)CC2)ccc1Nc1ncc2c(n1)N(C1CCCC1)CC(F)(F)C(=O)N2C : Yes
3. Cn1cc(C2=C(c3c4n(c5ccccc35)CC(CN)C4)C(=O)NC2=O)c2ccccc21 (stereo unspecified) : No
4. O=C(c1ccccc1)c1ccc(Cl)c([N+](=O)[O-])c1 : No
5. O=C(N/N=C/c1coc2ccc(Cl)cc2c1=O)c1ccncc1 : No
6. CCCN(CCC)c1ccc(C=O)cc1 : No
7. COc1ccc(Nc2c3c4c(cccc4[nH]c2=O)C(=O)c2ccccc2-3)cc1 : Yes
8. COc1ccc(C(=O)C(c2ccc(OC)cc2)C2C(=O)Oc3ccccc32)cc1 (stereo unspecified) : No

Record request — test call for CCCn1cc(C2=C(c3cn(C)c4ccccc34)C(=O)NC2=O)c2ccccc21
No

Record request — test call for O=C(Nc1ncc(Cc2ccccc2)s1)c1ccc2c(c1)OCCO2
Yes

Record request — test call for O=C(/C=C/c1ccccn1)c1ccccc1O
No
